Biological target: T1, human FolR3 ECD-AcTev-Fcknob-Avi tag + Fc hole, biotinylated monomeric Fc fusion (human, UniProt P0DOX5 223-449 = IgG part)
T1 construct: also called huFolR3; FolR3-Fc
Test: SPR ProteOn, Fab analyte;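 note: recombinant antigens immobilized, purified Fab two-fold dilutions injected in parallel channels, 200 s association and 600 s dissociation, buffer-only channel as in-line reference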
Recorded metric: binding result

[[record]]
binder = "16F12 Fab (Fab, V domains shown) VH: QVQLVQSGAEVKKPGASVKVSCKASGYTFTSYYMHWVRQAPGQGLEWMGIINPSGGSTSYAQKFQGRVTMTRDTSTSTVYMELSSLRSEDTAVYYCARNFTVLRVPFDYWGQGTLVTVSS VL: QAVVTQEPSLTVSPGGTVTLTCGSSTGAVTTSNYANWVQEKPGQAFRGLIGGTNKRAPGTPARFSGSLLGGKAALTLSGAQPEDEAEYYCALWYSNLWVFGGGTKLTVL"
recorded_metric = "binding result"
reported = "no binding"

[[record]]
binder = "18D3 Fab (Fab, V domains shown) VH: QVQLVQSGAEVKKPGASVKVSCKASGYTFTSYYMHWVRQAPGQGLEWMGIINPSGGSTSYAQKFQGRVTMTRDTSTSTVYMELSSLRSEDTAVYYCARNYYTGGSSAFDYWGQGTLVTVS VL: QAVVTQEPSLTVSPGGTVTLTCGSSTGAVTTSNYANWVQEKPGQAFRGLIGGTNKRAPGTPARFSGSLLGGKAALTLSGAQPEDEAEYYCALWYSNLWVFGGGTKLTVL"
recorded_metric = "binding result"
reported = "no binding"

[[record]]
binder = "20G6 Fab (Fab, V domains shown) VH: QVQLVQSGAEVKKPGASVKVSCKASGYTFTSYYMHWVRQAPGQGLEWMGIINPSGGSTSYAQKFQGRVTMTRDTSTSTVYMELSSLRSEDTAVYYCARGEWIRYYHFDYWGQGTLVTVSS VL: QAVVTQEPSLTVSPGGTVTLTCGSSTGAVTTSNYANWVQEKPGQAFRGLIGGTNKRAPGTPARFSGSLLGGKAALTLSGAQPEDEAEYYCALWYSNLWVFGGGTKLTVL"
recorded_metric = "binding result"
reported = "no binding"

